For each record, write down the corresponding pest or weed control at 62.5 g/ha.
# System: velvetleaf (Abutilon theophrasti)
# TEST_METHOD_NOTES: Test G Pre-Emergence Protocol
# Format: in vivo
# STUDY_CONDITIONS: Abutilon theophrasti, pre-emergence, 312 h, 62.5 g ai/ha, evaluated after 13 days, 100=total damage to plant, 0=no damage to plant, read-out: Velvetleaf damage rating
Give bare numbers, in %.

>>> val("Cc1c(F)cccc1NC(=O)[C@@H]1C(=O)N(C)C[C@H]1c1cccc(OCC(F)(F)F)c1 (racemic)")
10
>>> val("Cc1c(F)ccc(NC(=O)[C@@H]2C(=O)N(C)C[C@H]2c2ccc(C(F)(F)F)cc2)c1Cl (racemic)")
0
>>> val("CCOc1ccc([C@@H]2CN(C)C(=O)[C@H]2C(=O)Nc2cccc(F)c2C)cc1Cl (racemic)")
0
>>> val("CN1C[C@H](c2cccc(Cl)c2)[C@@H](C(=O)Nc2cnccc2C(F)(F)F)C1=O (racemic)")
0
>>> val("Cc1cc([C@H]2CN(C)C(=O)[C@@H]2C(=O)Nc2ccc(F)c(F)c2F)cnn1 (racemic)")
0

Return reported pest or weed control at 62.5 g/ha values for all items listed beneath this line.
1. CN1C[C@H](c2cc(C(C)(C)C)ncn2)[C@@H](C(=O)Nc2cccc(F)c2F)C1=O (racemic)
2. CN1C[C@H](c2ccc(C(F)(F)F)cc2)[C@@H](C(=O)Nc2ccc[n+]([O-])c2F)C1=O (racemic)
3. CN1C[C@H](c2cccc(C(F)F)c2)[C@@H](C(=O)Nc2ccccc2S(C)(=O)=O)C1=O (racemic)
4. CN1C[C@H](c2ccc(C(F)(F)F)cc2)[C@@H](C(=O)Nc2cccnc2S(C)(=O)=O)C1=O (racemic)
5. Cc1cc([C@H]2CN(C)C(=O)[C@@H]2C(=O)Nc2cccc(F)c2F)cnn1 (racemic)
6. Cc1cc(C2CN(C)C(=O)C2C(=O)Nc2cccc(F)c2F)cc(C)c1F (centres unmarked)

0
0
10
0
0
0

----------
# Tested on: barnyardgrass (Echinochloa crus-galli)
# TEST_METHOD_NOTES: Test A preemergence
# Type: in vivo
# STUDY_CONDITIONS: Echinochloa crus-galli, pre-emergence, 240 h, 31 g ai/ha, Preemergence; 0 to 100 scale where 0 is no effect and 100 is complete control; read-out: Barnyardgrass plant response rating
QUANTITY_NAME: pest or weed control at 31 g/ha (%)
Numbers only, in %.

Answered cases to consult:
>>> val("CN1C[C@H](c2ccc(Br)cc2)[C@@H](C(=O)Nc2ccc(F)c(F)c2F)C1=O")
40
>>> val("CON1CC[C@H](c2cccc(C(F)(F)F)c2)[C@@H](C(=O)Nc2cccc(Cl)c2F)C1=O")
40
>>> val("COc1ccc([C@H]2CN(C)C(=O)[C@@H]2C(=O)Nc2ccccc2F)cc1")
60
>>> val("CN1C[C@H](c2ccc3c(c2)OC(F)(F)O3)[C@@H](C(=O)Nc2cccnc2F)C1=O")
40

Return reported pest or weed control at 31 g/ha values for all items listed beneath this line.
1. CN1C[C@H](c2ccc3ncccc3c2)[C@@H](C(=O)Nc2cccc(F)c2F)C1=O
2. CN1C[C@H](c2cc(C(F)F)cs2)[C@@H](C(=O)Nc2cccc(F)c2C#N)C1=O
3. Cc1ccncc1NC(=O)[C@H]1C(=O)N(C)C[C@@H]1c1cccc(C(F)(F)F)c1
4. CN1C[C@H](c2cc(C(F)F)cs2)[C@@H](C(=O)Nc2ccc(F)c(F)c2F)C1=O

1. 0
2. 40
3. 0
4. 90
